Origin of the recorded values: PubChem BioAssay AID2060620

# System: 328373-195-R-J1-PDC complex spheroids, viability % test/control
# measurement notes: Anticancer human tumor 328373-195-R-J1-PDC patient-derived head and neck squamous carcinoma cell line growth inhibition [CLK]; active = viability on the fitted dose curve at most 10% of control; inactive = the rest
# protocol conditions: second compound 0.0316 µM; first compound 0.0949 µM
Response enum: active, inactive

Examples from the recorded data:
NC(=O)C(=Cn1cnc(-c2cc(C(F)(F)F)cc(C(F)(F)F)c2)n1)c1cncnc1 + CNC(=O)c1ccc(Nc2nc(OC3CCCC3)c3c(-c4ccc5nc(C)oc5c4)c[nH]c3n2)c(OC)c1 :: active
CC(C)CC(NC(=O)C(Cc1ccccc1)NC(=O)c1cnccn1)B(O)O (stereo unspecified) + CNC(=O)c1ccc(Nc2nc(OC3CCCC3)c3c(-c4ccc5nc(C)oc5c4)c[nH]c3n2)c(OC)c1 :: active
C=CC(=O)Nc1cc(Nc2nccc(-c3cn(C)c4ccccc34)n2)c(OC)cc1N(C)CCN(C)C + CNC(=O)c1ccc(Nc2nc(OC3CCCC3)c3c(-c4ccc5nc(C)oc5c4)c[nH]c3n2)c(OC)c1 :: inactive

What classification did NC(=O)C(=Cn1cnc(-c2cc(C(F)(F)F)cc(C(F)(F)F)c2)n1)c1cncnc1 + CN1CCN(c2cc(C(=O)Nc3cc4cc(-c5cnn(C)c5)ccc4cn3)ccn2)CC1 end up with in this test?
active

What classification did C=CC(=O)Nc1cc(Nc2nccc(-c3cn(C)c4ccccc34)n2)c(OC)cc1N(C)CCN(C)C + CN1CCN(c2cc(C(=O)Nc3cc4cc(-c5cnn(C)c5)ccc4cn3)ccn2)CC1 end up with in this test?
inactive

What classification did CC(C)CC(NC(=O)C(Cc1ccccc1)NC(=O)c1cnccn1)B(O)O (stereo unspecified) + CN1CCN(c2cc(C(=O)Nc3cc4cc(-c5cnn(C)c5)ccc4cn3)ccn2)CC1 end up with in this test?
active

----------
Listed below: viability, T/C values for each entry.
# System: 328373-195-R-J1-PDC complex spheroids, viability % test/control
# measurement notes: Anticancer human tumor 328373-195-R-J1-PDC cell line growth inhibition [CLK];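 note: spheroids exposed to the agents for 7 days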
# protocol conditions: second compound 1 µM; first compound 0.00949 µM; stronger effect = lower value
Just the number in %, nothing appended.

Sample records with viability, T/C:
NC(=O)C(=Cn1cnc(-c2cc(C(F)(F)F)cc(C(F)(F)F)c2)n1)c1cncnc1 + CNC(=O)c1ccc(Nc2nc(OC3CCCC3)c3c(-c4ccc5nc(C)oc5c4)c[nH]c3n2)c(OC)c1 :: 5.63
NC(=O)C(=Cn1cnc(-c2cc(C(F)(F)F)cc(C(F)(F)F)c2)n1)c1cncnc1 + CN1CCN(c2cc(C(=O)Nc3cc4cc(-c5cnn(C)c5)ccc4cn3)ccn2)CC1 :: 0.09
CC(C)CC(NC(=O)C(Cc1ccccc1)NC(=O)c1cnccn1)B(O)O (stereo unspecified) + CN1CCN(c2cc(C(=O)Nc3cc4cc(-c5cnn(C)c5)ccc4cn3)ccn2)CC1 :: 0.97
C=CC(=O)Nc1cc(Nc2nccc(-c3cn(C)c4ccccc34)n2)c(OC)cc1N(C)CCN(C)C + CN1CCN(c2cc(C(=O)Nc3cc4cc(-c5cnn(C)c5)ccc4cn3)ccn2)CC1 :: 0.9
CC(C)CC(NC(=O)C(Cc1ccccc1)NC(=O)c1cnccn1)B(O)O (stereo unspecified) + CNC(=O)c1ccc(Nc2nc(OC3CCCC3)c3c(-c4ccc5nc(C)oc5c4)c[nH]c3n2)c(OC)c1 :: 0.14

Below: the item to evaluate.
Tell us which viability, T/C value is on record for C=CC(=O)Nc1cc(Nc2nccc(-c3cn(C)c4ccccc34)n2)c(OC)cc1N(C)CCN(C)C + CNC(=O)c1ccc(Nc2nc(OC3CCCC3)c3c(-c4ccc5nc(C)oc5c4)c[nH]c3n2)c(OC)c1
9.93

----------
Listed below: viability, T/C values for each entry.
# Tested on: 328373-195-R-J1-PDC complex spheroids, viability % test/control
# measurement notes: Anticancer human tumor 328373-195-R-J1-PDC cell line growth inhibition [CLK];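 note: spheroids exposed to the agents for 7 days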
# protocol conditions: second compound 3.16 µM; first compound 0.316 µM; stronger effect = lower value
Just the number in %, nothing appended.

Tell us which viability, T/C value is on record for C=C(F)C(=O)N1CCN(c2nc(OCC3CCCN3C)nc3c2CCN(c2cccc4cccc(Cl)c24)C3)CC1CC#N (stereo not given) + CN1CCN(c2cc(C(=O)Nc3cc4cc(-c5cnn(C)c5)ccc4cn3)ccn2)CC1
1.39

Tell us which viability, T/C value is on record for O=C(c1cc(Cc2n[nH]c(=O)c3ccccc23)ccc1F)N1CCN(C(=O)C2CC2)CC1 + CN1CCN(c2cc(C(=O)Nc3cc4cc(-c5cnn(C)c5)ccc4cn3)ccn2)CC1
2.2

----------
# System: 328373-195-R-J1-PDC complex spheroids, viability % test/control
# measurement notes: Anticancer human tumor 328373-195-R-J1-PDC cell line growth inhibition [CLK];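 note: spheroids exposed to the agents for 7 days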
# protocol conditions: second compound 0.0316 µM; first compound 0.00316 µM; stronger effect = lower value
readout: viability, T/C (%)
Just the number in %, nothing appended.

Cn1ncnc1[C@H]1c2n[nH]c(=O)c3cc(F)cc(c23)N[C@@H]1c1ccc(F)cc1 + CNC(=O)c1ccc(Nc2nc(OC3CCCC3)c3c(-c4ccc5nc(C)oc5c4)c[nH]c3n2)c(OC)c1 :: 47.8
CCc1c2c(nc3ccc(O)cc13)-c1cc3c(c(=O)n1C2)COC(=O)[C@]3(O)CC + CN1CCN(c2cc(C(=O)Nc3cc4cc(-c5cnn(C)c5)ccc4cn3)ccn2)CC1 :: 12.2

Below: the item to evaluate.
Return reported viability, T/C for target or system 328373-195-R-J1-PDC complex spheroids, viability % test/control, item COc1c(OCCCN2CCOCC2)ccc2c3n(c(=NC(=O)c4cnc(N)nc4)nc12)CCN3 + CNC(=O)c1ccc(Nc2nc(OC3CCCC3)c3c(-c4ccc5nc(C)oc5c4)c[nH]c3n2)c(OC)c1 .
68.3

----------
# Tested on: 328373-195-R-J1-PDC complex spheroids, viability % test/control
# measurement notes: Anticancer human tumor 328373-195-R-J1-PDC cell line growth inhibition [CLK]; active = viability on the fitted dose curve at most 10% of control; inactive = the rest;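 note: spheroids exposed to the agents for 7 days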
# protocol conditions: second compound 0.1 µM; first compound 1 µM
Response enum: t = active, f = inactive

Examples from the recorded data:
CCc1c2c(nc3ccc(O)cc13)-c1cc3c(c(=O)n1C2)COC(=O)[C@]3(O)CC + CN1CCN(c2cc(C(=O)Nc3cc4cc(-c5cnn(C)c5)ccc4cn3)ccn2)CC1 :: t
C=C(F)C(=O)N1CCN(c2nc(OCC3CCCN3C)nc3c2CCN(c2cccc4cccc(Cl)c24)C3)CC1CC#N (stereo unspecified) + CN1CCN(c2cc(C(=O)Nc3cc4cc(-c5cnn(C)c5)ccc4cn3)ccn2)CC1 :: f
O=C(c1cc(Cc2n[nH]c(=O)c3ccccc23)ccc1F)N1CCN(C(=O)C2CC2)CC1 + CNC(=O)c1ccc(Nc2nc(OC3CCCC3)c3c(-c4ccc5nc(C)oc5c4)c[nH]c3n2)c(OC)c1 :: f

What classification did O=c1[nH]cc(F)c(=O)[nH]1 + CNC(=O)c1ccc(Nc2nc(OC3CCCC3)c3c(-c4ccc5nc(C)oc5c4)c[nH]c3n2)c(OC)c1 end up with in this test?
t

What classification did C=CC(=O)N1CCN(c2nc(=O)n(-c3c(C)ccnc3C(C)C)c3nc(-c4c(O)cccc4F)c(F)cc23)C(C)C1 (stereo unspecified) + CN1CCN(c2cc(C(=O)Nc3cc4cc(-c5cnn(C)c5)ccc4cn3)ccn2)CC1 end up with in this test?
f

What classification did COC1C=CCC(C)C(C)S(=O)(=O)NC(=O)c2ccc3c(c2)N(CC2CCC21)CC1(CCCc2cc(Cl)ccc21)CO3 (stereo unspecified) + CN1CCN(c2cc(C(=O)Nc3cc4cc(-c5cnn(C)c5)ccc4cn3)ccn2)CC1 end up with in this test?
f

What classification did COc1c(OCCCN2CCOCC2)ccc2c3n(c(=NC(=O)c4cnc(N)nc4)nc12)CCN3 + CNC(=O)c1ccc(Nc2nc(OC3CCCC3)c3c(-c4ccc5nc(C)oc5c4)c[nH]c3n2)c(OC)c1 end up with in this test?
t

What classification did CCN1CCN(Cc2ccc(Nc3ncc(F)c(-c4cc(F)c5nc(C)n(C(C)C)c5c4)n3)nc2)CC1 + CN1CCN(c2cc(C(=O)Nc3cc4cc(-c5cnn(C)c5)ccc4cn3)ccn2)CC1 end up with in this test?
f

What classification did O=c1[nH]cc(F)c(=O)[nH]1 + CN1CCN(c2cc(C(=O)Nc3cc4cc(-c5cnn(C)c5)ccc4cn3)ccn2)CC1 end up with in this test?
f

What classification did CC(Nc1ccc2c(c1)OCCn1cc(N3C(=O)OCC3C(F)F)nc1-2)C(N)=O (stereo unspecified) + CN1CCN(c2cc(C(=O)Nc3cc4cc(-c5cnn(C)c5)ccc4cn3)ccn2)CC1 end up with in this test?
f

What classification did CCc1c2c(nc3ccc(O)cc13)-c1cc3c(c(=O)n1C2)COC(=O)[C@]3(O)CC + CNC(=O)c1ccc(Nc2nc(OC3CCCC3)c3c(-c4ccc5nc(C)oc5c4)c[nH]c3n2)c(OC)c1 end up with in this test?
t
